# experimental-target: rat brain membranes
# procedure-summary: radioreceptor binding assay
# experimental-setup: 1 nM radioligand, with Na, 1 h at 23°; read-out: IC50 for inhibition of stereospecific binding, radioligand 3H-naloxone +Na
# Description: The radioreceptor binding assay used well washed rat brain membranes that had been incubated for 30 min at 37° with 100 mM NaCl to remove bound endogenous ligands. Blume (1978) Proc. Natl. Acad. Sci. 75, 1713. Several radioligands (1 nM final concentration) and competing ligands were tested. […] After incubation (1 h, 23°), the mixture was chilled, filtered, washed twice, and counted. […]
pIC50: −log10 of the molar value.
observed-property: pIC50

INSERT INTO assay_data (mol, experimental_target, observed_result) VALUES
  ('Oc1ccc2c3c1O[C@H]1[C@@H](O)C=C[C@H]4[C@@H](C2)NCC[C@@]341', 'rat brain membranes', 6.59);
